Tested on: Bacillus subtilis
Method notes: cleaved RNA product abundance (RNA/gDNA barcode ratio) relative to median wild-type variant (ratio to wild type); higher = more accumulation of the downstream cleavage product
Measurement conditions: experiment (reporter, strain, medium): exp 8a: truncated aprE reporter, strain BJT201 with 2% xylose (RNase J1 expressed); cleavage site: glnRA (positions -5 to +31 mutated)
Would you please tag the item Y when its cleaved RNA product abundance is 0.4 or above, and N when it is below?

Take a look at these entries with their results.
CGACATGTCCCGCTTCTTTCATTAATCCGTTAGCAATTGTTTTGCTATAGACATTTACCTTTTAAGAGGAGGAAT N
CGACATGTCCCGCTTCTTTCATTAATCCGTTAGCAACTGTTTTGCTATATACACTTATCTTTTAAGAGGAGGAAT Y
CGACATGTCCCGCTTCTTTCATTAAACCGTTAGCAACAGTTTTGCTATATACATTTACCTTTTAAGAGGAGGAAT Y

Next, consider the following sequence.
Q: Test whether the sequence `CGACATGTCCCGCTTCTTTCATTATTCCGTTAGCAACTGTTTTGCTATATACATTTACGTTTTAAGAGGAGGAAT` records cleaved RNA product abundance of 0.4 or higher.
Result: Y

* * *

Test system: Bacillus subtilis
Method notes: cleaved RNA product abundance (RNA/gDNA barcode ratio) relative to median wild-type variant (ratio to wild type); higher = more accumulation of the downstream cleavage product
Measurement conditions: experiment (reporter, strain, medium): exp 2b: truncated aprE reporter, strain BJT200; cleavage site: cggR-gapA (positions -7 to +36 mutated)
This listing pairs sequences with measured cleaved RNA product abundance.
Answer field: number only, no words.

Q: # get_value(readout='cleaved RNA product abundance', item= `ACAGACGAAGGAGCCGCAAAGAAGTTATTAAGGGATGAATAATCTCTCAATATATATATCTCTCACTTATTTAAA` )
Result: 0.682

Q: GET /values?readout=cleaved RNA product abundance&item= `ACAGACGAAGGAGCCGCAAAGAAGTTATCAAGGGATGAATAATCCCTCAATATAAATGTCTCTCACTTATTTAAA`
Result: 0.192

Q: Looking for the measured cleaved RNA product abundance of `ACAGACGAAGGAGCCGCAAAGAAGTAATTAAGGGATGAATAATCCCTCAATATAAGTATCTCTCACTTATTTAAA` , can you help?
Result: 0.119

Q: Using the record for `ACAGACGAAGGAGCCGCAAAGAAGTTATCAAGGGATGAATAATACCTCAATATAAATATCTCTCACTTATTTAAA` , report its cleaved RNA product abundance.
Result: 0.149

Q: // returns reported cleaved RNA product abundance for input `ACAGACGAAGGAGCCGCAAAAAAGTTATTAAGGGAAGAATAATCCCTCAATATAAATATCTCTCACTTATTTAAA`
Result: 0.426

Q: Returns the measured cleaved RNA product abundance for the input sequence. Input: `ACAGACGAAGGAGCCGCAAAGAAGTGATTAAGAGATGAATAATCCCTCAATATAAATATCTCTCACTTATTTAAA`
Result: 0.0989

Q: Recorded cleaved RNA product abundance of `ACAGACGAAGGAGCCGCAAAGAAGTTATTAAGGGATCAATAAACCCTCAATATAAATATCTCTCACTTATTTAAA` , please.
Result: 0.518

Q: Which cleaved RNA product abundance value is on record for `ACAGACGAAGGAGCCGCAAAGAAATTATTAAGGGATGACTAATCCCTCAATATAAATATCTCTCACTTATTTAAA` ?
Result: 0.453

Q: Quick check: cleaved RNA product abundance of `ACAGACGAAGGAGCCGCAAAGAAGCTATTAAGGGAAGAATAATCCCTCAATATAAATATCTCTCACTTATTTAAA` ?
Result: 0.265

Q: # lookup: cleaved RNA product abundance of `ACAGACGAAGGAGCCGCAAAGAAGGTATTAAGGGATGAATAATCCCACAATATAAATATCTCTCACTTATTTAAA`
Result: 0.314

Q: Record request: cleaved RNA product abundance value, item `ACAGACGAAGGAGCCGCAAAGAAGTTATTAAGGGATGAATAATCCCTCAATATAAGTATCTCTCACTTATTTAAA`
Result: 0.397

Q: Fill in the blank: the reported cleaved RNA product abundance of `ACAGACGAAGGAGCCGCAAAGAAGTTATTAAGGGATGAATAATCCCTTTATATAAATATCTCTCACTTATTTAAA` is ____.
Result: 1.14

Q: Would you mind telling me what cleaved RNA product abundance value was observed for `ACAGACGAAGGAGCCGCAAAGAAGTTATTAAGGAATGAATAATCCCTCAATATAAATTTCTCTCACTTATTTAAA` ?
Result: 0.114

Q: Please give the measured cleaved RNA product abundance for this sequence: `ACAGACGAAGGAGCCGCAAAGAAGTAATTAAGGGATGAATAATCCCTCAATATAATTATCTCTCACTTATTTAAA`
Result: 0.151

Q: // cleaved RNA product abundance lookup, key: `ACAGACGAAGGAGCCGCAAAGAAGTTACTAAGGGATGAATTATCCCTCAATATAAATATCTCTCACTTATTTAAA`
Result: 0.199

Q: Look at this sequence and give its reported cleaved RNA product abundance. `ACAGACGAAGGAGCCGCAAAGAAGTTATTTAGGTATGAATAATCCCTCAATATAAATATCTCTCACTTATTTAAA`
Result: 0.121
